Experiment: amyloid nucleation score (Sup35N fusion, yeast selection) (log enrichment); library NNK2; higher = more nucleation; inactive = no reads after selection;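 further: zero at mode of non-aggregating sequences after 7 days selection at 30°C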
PROPERTY_MEASURED: amyloid nucleation score
Please reply with the number alone, leaving off any unit.

For `VFLFDLGYQGR` , what is its reported amyloid nucleation score? 6.67

###

Test: amyloid nucleation score (Sup35N fusion, yeast selection) (log enrichment); library NNK2; higher = more nucleation; inactive = no reads after selection
The entries below are paired with their reported amyloid nucleation score.
Please reply with the number alone, leaving off any unit.

Worked cases, amyloid nucleation score given:
SUBSTANCE | amyloid nucleation score
WMWPPMPLGKVAQRGLAVVC | 1.28
MVSCRN | 0.237
SGLPMYCSYRYHSRLGNTYR | 2.92
NLKKAQFRGMYVAYP | 1.55

For `KVTSMHVFIESWGV` , what is its reported amyloid nucleation score? 0.082

###

Assay: amyloid nucleation score (Sup35N fusion, yeast selection) (log enrichment); library NNK1; higher = more nucleation; inactive = no reads after selection
PROPERTY_MEASURED: amyloid nucleation score
Please reply with the number alone, leaving off any unit.

Worked cases, amyloid nucleation score given:
SUBSTANCE | PROPERTY_MEASURED | QUANTITATIVE_READOUT
TGYRFLSIIIAAADSDCELS | amyloid nucleation score | -0.706
CNCVWRCWV | amyloid nucleation score | 1.14
CTFSSWRESGFWTSLIHGYL | amyloid nucleation score | -0.218
QSTLGGSKHAWLIENGGFGF | amyloid nucleation score | -0.685
DFYLWPGMFSKYLGLNATLS | amyloid nucleation score | -0.604
HNKCSFLYMSQYARHRMYSS | amyloid nucleation score | 0.218

For `QGIYTD` , what is its reported amyloid nucleation score? -0.921

Quick one: `WSIKFQS` -0.123

Quick one: `GNVRYAPYVVGIKLIRANSC` -0.381

###

The entries below are paired with their reported amyloid nucleation score.
Test: amyloid nucleation score (Sup35N fusion, yeast selection) (log enrichment); library NNK2; higher = more nucleation; inactive = no reads after selection
Please reply with the number alone, leaving off any unit.

ORDERED_RESIDUES | QUANTITATIVE_READOUT
NSFYRCYVRCIVSVRFLCCH | 5.01
YFILVLVESLHPSGVPAFWC | -0.103
GCDLKLGVKCLKNERRVPEF | 0.382

For `WVFNNELCNDYEHWLWARFD` , what is its reported amyloid nucleation score? -0.295

Quick one: `TYCILPLRVRMWTSTTLCQV` 4.59

Quick one: `SMGFSSVPHSYTCTVEQG` 6.06

Quick one: `VWYINSTNYLCPLISRVQVE` -0.997

Quick one: `TYDLDLVMLRSMRVENLLWG` 0.616

Quick one: `YVDWVNRTFQWFTGDVDDPV` -0.107

Quick one: `LTRVNWCLPKAGSLKQF` -0.06

Quick one: `CAKCVMCSNCPKNSGRILYR` -1.12

Quick one: `SLSRNGTVFARFRVSTSRCL` 4.23

Quick one: `NFPRRSRVLKYCITLSSNHS` -0.158

Quick one: `MCTELYEDGNKPTTRSDRSA` 3.21

Quick one: `FSSSEHVFQVDGGFDKNRPI` -1.47

Quick one: `TLYMFMPMLFNVIPEVRWPP` 9.03

Quick one: `KFRDVFFPY` -0.76

Quick one: `TMQIFMKSMINSGICSTYHL` 3.47

Quick one: `SGFSLDLLVGGPCVPDLTVR` 0.228

Quick one: `SSYRRLTQSTLRVDRHRLFY` 0.732

###

The entries below are paired with their reported amyloid nucleation score.
Test: amyloid nucleation score (Sup35N fusion, yeast selection) (log enrichment); library NNK1; higher = more nucleation; inactive = no reads after selection
Please reply with the number alone, leaving off any unit.

SUBSTANCE | PROPERTY_MEASURED | QUANTITATIVE_READOUT
LFCVSDSPCVCGRHSISYDW | amyloid nucleation score | -0.601

For `VISIGIGMDTTTRVGQMYMK` , what is its reported amyloid nucleation score? -0.115

Quick one: `RKLKSCSTNGHIG` 6.02

Quick one: `SRVSNCISLVMYKAKLCSIR` 0.644

Quick one: `RTCAWVGQHATSLWPFNRGQ` 0.493

Quick one: `VSRVNYNVFSVGISKSVCD` 0.201

Quick one: `STFGPCEVLVVQVDGPAYHT` -0.37

###

Assay: amyloid nucleation score (Sup35N fusion, yeast selection) (log enrichment); library NNK1; higher = more nucleation; inactive = no reads after selection
PROPERTY_MEASURED: amyloid nucleation score

SUBSTANCE | amyloid nucleation score
VTSSWNSDAFTWFYNDSWCL | inactive
VSEHSFWIWGRVPQLTQIIA | inactive
SSFCRLLNIMYSRWGGLGTY | inactive
VRGSVRCNVDYLICVYVHR | 1.46
LTGRVFRSYRYGCTGQIAVD | -0.624

For `DGFKAALICAIANY` , what is its reported amyloid nucleation score? 0.397

Quick one: `FALIRN` -0.368

###

Test: amyloid nucleation score (Sup35N fusion, yeast selection) (log enrichment); library NNK2; higher = more nucleation; inactive = no reads after selection
PROPERTY_MEASURED: amyloid nucleation score
Please reply with the number alone, leaving off any unit.

SUBSTANCE | QUANTITATIVE_READOUT
LSLVEIFLGMRSLEVFCWVE | -0.709

For `SLENWLCAVPLCGESLEKVW` , what is its reported amyloid nucleation score? 0.469

Quick one: `TFDLSWLVHVPDNCCHLLCF` -0.183

Quick one: `NMEQFTRSIKSIGKRFTVTV` -0.471

Quick one: `FMLFRRGKNQRFRRLTDYKN` -2.44

Quick one: `AHYIASVDWIFKM` -1.32

Quick one: `GMLRGSK` -0.359

Quick one: `LSTSWQRLVTILPLEWYHS` 0.052

Quick one: `PSVKIRFQVAYWLYRSLMMS` 0.877

Quick one: `LSLVYRIGLNCNRELSSFDW` 2.33

Quick one: `SEANKSGVSVGWCDCAVGCV` 0.734

###

Assay: amyloid nucleation score (Sup35N fusion, yeast selection) (log enrichment); library NNK1; higher = more nucleation; inactive = no reads after selection
The entries below are paired with their reported amyloid nucleation score.

SUBSTANCE | RESULT
VMILNLIVDTRLRVSRHLHV | 2.88
NLINSIGIVEAWEILPASSR | 0.124
IIFWGLCICHPVLPTRGGWE | 7.26
TIRNMMMYYGSSKVSYRMNS | 0.587
PELAGRLSVRDLLW | 0.059
WWLRVVS | 0.041

Please examine the following record next.
For `WCGVFESGNRPKSQGKGSKW` , what is its reported amyloid nucleation score? 0.159

###

Experiment: amyloid nucleation score (Sup35N fusion, yeast selection) (log enrichment); library NNK3; higher = more nucleation; inactive = no reads after selection
PROPERTY_MEASURED: amyloid nucleation score

SUBSTANCE | amyloid nucleation score
FFYSYGRLNPKYDRVYISFG | -0.661
QYSYSPGCRYLKVMLSNNSE | inactive
CSCYENFELVPGFRRCRGMV | inactive
CLYIKVFEFNS | 2.16
TFDPKL | inactive
LHVLPEQARTPRVTVPVFSP | -0.339

For `SFDQNRRVVIFVSPHSEGMR` , what is its reported amyloid nucleation score? inactive

Quick one: `MCNMCR` inactive

Quick one: `YFENLVEVRQIATFKTV` inactive

Quick one: `RSLYWIWWDDSKSNE` inactive

Quick one: `FTWRRFRVKSYYDYFASLGV` inactive

Quick one: `YSSECALWNCRACVLYIHYR` 1.27

Quick one: `ESNVVPLNSHR` inactive

###

Assay: amyloid nucleation score (Sup35N fusion, yeast selection) (log enrichment); library NNK1; higher = more nucleation; inactive = no reads after selection
The entries below are paired with their reported amyloid nucleation score.
Please reply with the number alone, leaving off any unit.

For `HSVVLILCLAL` , what is its reported amyloid nucleation score? 0.057

Quick one: `LFFMVLFNKSTEFERLFHIV` -0.633

Quick one: `EYLLNNPVGRCFDLLFNSIG` -0.881

Quick one: `FIQCVFHVCLRV` 4.68

Quick one: `PVLLRSIIF` -0.346

Quick one: `HFKAYAFLDPFPLAPKL` 0.463

Quick one: `VLISENNITNHNSHECLVCY` -1.02

###

Assay: amyloid nucleation score (Sup35N fusion, yeast selection) (log enrichment); library NNK2; higher = more nucleation; inactive = no reads after selection
PROPERTY_MEASURED: amyloid nucleation score
Please reply with the number alone, leaving off any unit.

For `VVLYCFISLLKFIEIGEGHP` , what is its reported amyloid nucleation score? -1.24

Quick one: `GVIWWPVTLCFWLCAKYIGL` -0.552

Quick one: `SDHTVELFTCKPVMQTRQRT` 0.439

Quick one: `ICLDLCNMKLEKGLS` -1.55

Quick one: `KHSWSIALV` 0.239

Quick one: `GVWYFANFFVVMRAVGCDVG` 0.484

Quick one: `HCVLRSQT` 2.38

Quick one: `TVFFGLVCRGPVKKDM` 2.1

Quick one: `CDYYLFLCIYRSQNVGTEGG` 6.78

Quick one: `ALVLRATVVVGIVKPGHAAD` 0.523

Each recorded value in this set is attributed to the supplement of paper PMC12042874.
